experiment: Inhibition of Bacillus stearothermophilus alpha-glucosidase type IV using p-nitrophenyl-alpha-D-glucopyranoside as substrate preincubated for 15 mins followed by substrate addition and measured after 35 mins by microtiter plate reader analysis; design: species or system Geobacillus stearothermophilus
PROPERTY: pIC50
Scale: negative log10 of molar concentration, which is what pIC50 denotes.

As a guide, the following entries are already answered.
                         compound_structure  property  result_number
0  Oc1cc(O)cc(/C=C/c2cc(O)c(O)c3c2[C@H](c2cc(O)cc(O)c2)[C@@H](c2cc(O)c(O)c(O)c2)O3)c1     pIC50           5.31
1      Oc1cc(O)cc(/C=C/c2cc(O)c(O)c(O)c2)c1     pIC50           4.72
2         Oc1cc(O)cc(/C=C/c2ccc(O)c(O)c2)c1     pIC50           4.64
3  Oc1ccc(/C=C/c2cc(O)cc3c2[C@H](c2cc(O)cc(O)c2)[C@@H](c2ccc(O)c(O)c2)O3)cc1     pIC50           5.08
4  COc1cc([C@@H]2c3c(O)cc(O)cc3[C@@H]3[C@H]2CO[C@H]3c2cc(O)c(O)c(O)c2)cc(OC)c1O     pIC50           5.19

Need pIC50 of Oc1ccc(/C=C/c2cc(O)cc(O)c2)cc1 , thanks.
4.62

Lookup COc1cc([C@@H]2c3c(O)cc(O)cc3[C@@H]3[C@H]2CO[C@H]3c2ccc(O)c(O)c2)cc(OC)c1O
4.96

====

test: Inhibition of alpha-glucosidase (unknown origin) using p-nitrophenyl-alpha-D-glucopyranoside as substrate preincubated for 10 mins followed by substrate addition and measured after 30 mins
Classify: yes (1) when IC50 is strictly less than 4 µM; no (0) when IC50 is not.

>>> df
                         compound_structure  classification
0  O=C1c2c(Cl)c(Cl)c(Cl)c(Cl)c2C(=O)N1CCCc1ccccc1          no (0)

Below 4 µM on IC50? Entry O=C1c2c(Cl)c(Cl)c(Cl)c(Cl)c2C(=O)N1CCCCc1ccccc1
yes (1)

Record: O=C1c2c(Cl)c(Cl)c(Cl)c(Cl)c2C(=O)N1CCCCCCc1ccccc1
no (0)

Consider next the compound O=C1c2c(Cl)c(Cl)c(Cl)c(Cl)c2C(=O)N1Cc1ccccc1 in the same way.
no (0)

Same question for O=C1c2c(Cl)c(Cl)c(Cl)c(Cl)c2C(=O)N1CCCCCc1ccccc1 please.
yes (1)

Item: O=C1c2c(Cl)c(Cl)c(Cl)c(Cl)c2C(=O)N1CCc1ccccc1
no (0)

====

Entries and their pKi
experiment: Inhibition of human alpha-fucosidase
In simple prose, pKi is minus the logarithm base ten of a concentration in moles per litre.

Requested read-out: pKi. Entry: C[C@@H]1N[C@H](CNC(=O)CCc2c[nH]c3ccccc23)[C@@H](O)[C@H](O)[C@@H]1O
9.98

Then this compound: CC(=O)NC[C@H]1N[C@@H](C)[C@@H](O)[C@@H](O)[C@@H]1O
8.35

====

assay: Inhibition of rat intestinal maltase preincubated for 10 mins followed by substrate addition
PROPERTY: pIC50
Please express pIC50 as -log10 of the molar concentration.

Requested field: pIC50. Item: CC1(C)CCC[C@]2(C)c3cc(O)c(O)cc3C(=O)C[C@@H]12
4.92
